target: T1, THD1 L400A (UniProt P26039 1-405, L400A); assay: MST; apparent; THD1 or THD1 mutants titrated to 488–β3-CT in the presence of 30-40 µM KIND2; MST buffer; conditions: both partners purified
T1 construct: talin-1 (TLN1) head domain, residues 1-405, L400A; source: E. coli (DE3) Rosetta 2, purified (IMAC, SEC); not shown: His10-SUMO, N-terminal, cleaved
T1 sequence (P26039 1-405 L400A): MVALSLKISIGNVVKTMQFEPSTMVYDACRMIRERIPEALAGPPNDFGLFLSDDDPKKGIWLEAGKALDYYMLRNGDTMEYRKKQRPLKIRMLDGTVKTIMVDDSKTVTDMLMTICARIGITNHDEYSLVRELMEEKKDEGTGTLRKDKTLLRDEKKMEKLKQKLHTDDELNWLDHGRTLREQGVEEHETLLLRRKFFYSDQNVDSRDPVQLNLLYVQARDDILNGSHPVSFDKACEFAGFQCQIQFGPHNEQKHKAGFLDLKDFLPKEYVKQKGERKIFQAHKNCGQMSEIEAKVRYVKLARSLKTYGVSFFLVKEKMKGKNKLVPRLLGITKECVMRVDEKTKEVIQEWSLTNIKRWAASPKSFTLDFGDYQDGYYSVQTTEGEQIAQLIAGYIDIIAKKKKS
No end group written: not given here.
measurementKind: Kd (µM)
Answers are plain numbers, in µM.

Enquiry: Answer with the recorded Kd of {ATTO 488}-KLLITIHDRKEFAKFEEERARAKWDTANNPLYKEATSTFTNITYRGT (peptide, UniProt O54890 741-787, looked up, integrin β3 cytoplasmic tail (β3-CT); source: synthetic peptide (MPIB Core Facility)) [ATTO 488-labeled integrin β3 cytoplasmic tail (488–β3-CT)] only.
Return: 180
